Biological target: T1, human GIPR (human, UniProt P48546 22-466)
T1 sequence (looked up): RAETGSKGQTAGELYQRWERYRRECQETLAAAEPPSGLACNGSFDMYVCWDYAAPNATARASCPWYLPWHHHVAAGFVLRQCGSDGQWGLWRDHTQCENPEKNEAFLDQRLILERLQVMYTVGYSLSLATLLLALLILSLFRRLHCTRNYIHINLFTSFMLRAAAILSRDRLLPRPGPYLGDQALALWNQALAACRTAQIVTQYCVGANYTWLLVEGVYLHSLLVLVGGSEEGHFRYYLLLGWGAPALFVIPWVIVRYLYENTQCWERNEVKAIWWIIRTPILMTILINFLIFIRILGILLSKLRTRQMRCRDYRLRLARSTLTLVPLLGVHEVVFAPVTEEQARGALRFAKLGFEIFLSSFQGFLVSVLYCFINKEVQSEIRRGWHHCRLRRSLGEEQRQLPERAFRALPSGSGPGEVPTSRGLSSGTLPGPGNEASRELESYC
Assay: cell-based or functional assay
Square brackets hold non-standard residues; d marks the D form. Side chains are listed from the residue outwards. Ends that are not written are not given here. NMeY = CN[C@@H](Cc1ccc(O)cc1)C(=O)O; αMeF = C[C@](N)(Cc1ccccc1)C(=O)O; Iva = CC[C@](C)(N)C(=O)O; Oda = not defined here; Aib = CC(C)(N)C(=O)O
Parameter: Agonist activity (EC50), Cre-luc reporter assay. Scope: all listed entries.

Example entries begin here.
BINDER: H-Y[Aib]EGT[αMeF]TSDK([Gly-Gly-Gly-Gly-Pal])SI[Aib]LEKQRQ[Iva]EFVRHLLNK[Aib]TRQRY-NH2
RECORDED RESULT: 41 pM

BINDER: Me-Y[Aib]EGT[αMeF]TSDK([Gly-Gly-Gly-Gly-Oda])[Aib]I[Aib]LDKQRQ[Iva]EFVRHLLNK[Aib]TRQRY-NH2 (reading uncertain; also: printed as Me-Tyr-Aib-Glu-Gly-Thr-αMePhe-Thr-Ser-Asp-Lys(-Gly-Gly-Gly-Gly-Oda)-Aib-Ile-Aib-Leu-Asp-Lys-Gln-Arg-Gln-Iva-Glu-Phe-Val-Arg-His-Leu-Leu-Asn-Lys-Aib-Thr-Arg-Gln-Arg-Tyr-NH2)
RECORDED RESULT: 250 pM

Could you now look at the following binder, please?
## Input For the binder shown here, [NMeY][Aib]EGT[αMeF]TSDK([Gly-Gly-Gly-Gly-Oda])AI[Aib]LEKQRQ[Iva]EFVRHLLNK[Aib]TRQRY-NH2 (reading uncertain; also: printed as Me-Tyr-Aib-Glu-Gly-Thr-αMePhe-Thr-Ser-Asp-Lys(-Gly-Gly-Gly-Gly-Oda)-Ala-Ile-Aib-Leu-Glu-Lys-Gln-Arg-Gln-Iva-Glu-Phe-Val-Arg-His-Leu-Leu-Asn-Lys-Aib-Thr-Arg-Gln-Arg-Tyr-NH2) , give the reported Agonist activity (EC50), Cre-luc reporter assay.
## Output 400 pM
